Recorded values, source ChEMBL document CHEMBL1649198.

Each item that follows carries a reported MIC.
test system: Pseudomonas aeruginosa; test: Antimicrobial activity against Pseudomonas aeruginosa isolate 2998 obtained from cystic fibrosis patient by agar dilution method
observationType: MIC (µg/mL)

1) O=C(O)c1cn(C2CC2)c2cc(N3CCNCC3)c(F)cc2c1=O 1
2) CC(C)(O/N=C(\C(=O)N[C@@H]1C(=O)N2C(C(=O)[O-])=C(C[n+]3ccccc3)CS[C@H]12)c1csc(N)n1)C(=O)O 0.5
3) CO/N=C(\C(=O)N[C@@H]1C(=O)N2C(C(=O)[O-])=C(C[N+]3(C)CCCC3)CS[C@H]12)c1csc(N)n1 8
4) CO[C@@H]1[C@@H](OC(N)=O)[C@@H](O)[C@H](Oc2ccc3c(O)c(NC(=O)c4ccc(O)c(CC=C(C)C)c4)c(=O)oc3c2C)OC1(C)C 32
5) C[C@H]1[C@H](NC(=O)/C(=N\OC(C)(C)C(=O)O)c2csc(N)n2)C(=O)N1S(=O)(=O)O 0.12
6) NCC[C@H](O)C(=O)N[C@@H]1C[C@H](N)[C@@H](O[C@H]2O[C@H](CN)[C@@H](O)[C@H](O)[C@H]2O)[C@H](O)[C@H]1O[C@H]1O[C@H](CO)[C@@H](O)[C@H](N)[C@H]1O 16
7) CC1(C)S[C@@H]2[C@H](NC(=O)[C@H](C(=O)O)c3ccsc3)C(=O)N2[C@H]1C(=O)O 0.5
8) NC[C@H]1O[C@H](O[C@H]2[C@H](O)[C@@H](O[C@H]3O[C@H](CO)[C@@H](O)[C@H](N)[C@H]3O)[C@H](N)C[C@@H]2N)[C@H](N)C[C@@H]1O 4
